B1: LINE1-full (parent)
chain: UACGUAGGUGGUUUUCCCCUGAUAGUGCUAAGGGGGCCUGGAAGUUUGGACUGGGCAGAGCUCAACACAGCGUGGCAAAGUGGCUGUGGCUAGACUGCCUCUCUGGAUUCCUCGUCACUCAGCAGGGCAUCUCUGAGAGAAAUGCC

- Variants of: B1
- ASSAY DETAILS: self-cleavage, relative activity (ratio to wild type); higher = more cleavage; in vitro, sequencing; the parent is a self-cleaving ribozyme
This listing pairs variants with measured self-cleavage.
Answer using only a numeral; do not append any unit.

Use these answered entries as a reference point.
MUTANT ID	self-cleavage
A50C A117U	0.92
U102G A121G	0.59

Identify self-cleavage associated with the variant U1C G36C 1.26

Identify self-cleavage associated with the variant U73A A94C 0.05

Identify self-cleavage associated with the variant U20A U130C 1.45

Identify self-cleavage associated with the variant U12G A79U 1.3

Identify self-cleavage associated with the variant U119A A121G 1.27
